test system: H146 cells; details: human, 72 h
quantity: IC50

Prompt line: Return reported IC50. Input molecule: C[NH+]1CCN(C(=O)C2C(C(=O)O)[C@H]3CC[C@@H]2O3)CC1 (stereo in doubt)
Response line: > 20 µM

====

test system: H526 cells; test: Cell Counting Kit-8 cytotoxicity, H526; conditions: read-out: Cytotoxicity IC50; H526; 72 hours
quantity: pIC50
Give only the number. pIC50 is defined as minus log10 of concentration in molar units.

Prompt line: Using the record for N.N.O=C([O-])C1(C(=O)[O-])CCC1.[Pt+2] [Carboplatin, reference compound] , state its measured pIC50.
Response line: 4.48
